tested on: Wnt5a (protein binding on small-molecule microarray); assay: Wnt5a binders on small-molecule microarray, primary screen, biophysical, 635/667 nm fluorescence (AID 1142); settings: 635 nm fluorescence, higher = more signal;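 also: fluorescence read at 667 nm with signal to noise per printed feature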
Assign met whenever composite z-score does not fall below 0.05; assign not met whenever it does.

CCOC(=O)NN=C1C[C@@H](O)[C@@H](O)[C@@H]2[C@@H]3C(=O)N(C[C@@H]4CCCO4)C(=O)[C@@H]3CC[C@H]12 | met
CO[C@@H]1COC(=O)[C@@H]2CCCN2C(=O)[C@@H](C)COC(=O)CCC[C@H]1C | not met
O=C1CCCC=C1C(O)C1CCCCC1 (stereo not given) | not met
CCc1cc2c(nc1CC)CCN(CCC(C)=NO[C@@H]1O[C@H](COC(C)=O)[C@@H](OC(C)=O)[C@H](OC(C)=O)[C@H]1OC(C)=O)C2 | met
COc1cccc([C@H]2Oc3ccc(OC)cc3C(=NO[C@@H](C)c3cc(-c4c(C)cc(C)cc4C)no3)[C@@H]2O)c1 | not met
CC(CCN1CCCc2nc(C)c(C)cc21)=NO[C@H](C)c1cn([C@@H]2COC[C@H]2O)nn1 | met
COc1ccc(O[C@H]2C=C[C@@H](c3ccccc3)O[C@@H]2CON=C2c3cc(OC)ccc3O[C@H](c3cccc(OC)c3)[C@H]2O)cc1 | met
C[C@@H](c1ccccc1)N1C(=O)[C@H]2[C@H]3[C@H](O)[C@H](O)CC(=NOC[C@@H](O)COCc4ccco4)[C@H]3CC[C@H]2C1=O | not met
COc1ccc(OC[C@@H]2CC3[C@@H](c4ccc(Br)cc4)[C@H](C)CC[C@H]3C(=O)O2)cc1 (stereo not given in full) | not met
CC(C)(C)N1C(=O)[C@H]2[C@H]3[C@H](O)[C@H](O)CC(=NOC[C@@H](O)COCc4ccco4)[C@H]3CC[C@H]2C1=O | not met
COC(=O)[C@@H]1CC[C@H](C)[C@@H](c2ccc(C)cc2)N1C(=O)c1ccc(C=NOC[C@H]2O[C@H](c3ccccc3)C=C[C@@H]2Oc2ccc(OC)cc2)cc1 | not met
CC(=O)OC[C@H]1O[C@H](CC=NOCC[C@@H]2C=C[C@H](OC(C)=O)[C@@H](COC(C)=O)O2)C=C[C@@H]1OC(C)=O | met
O=C1[C@H]2CCn3c(=O)n(-c4ccccc4)c(=O)n3[C@H]2[C@H](O)[C@@H]2O[C@H]12 | not met
CO[C@H]1COC(=O)CCC[C@H](C)[C@@H](OC)COC(=O)CC=C[C@@H]1C | not met
C[C@@H]1CC[C@H]2C(=O)O[C@@H](COc3ccc(C(C)(C)C)cc3)CN2[C@H]1c1ccc(Br)cc1 | not met
CC(CCN1CCCCc2nc(C)c(C)cc21)=NO[C@@H](C)c1cc(-c2c(C)cc(C)cc2C)no1 | not met
CCOC(=O)CCN1C(=O)[C@H]2[C@H]3[C@H](O)[C@H](O)CC(=NO[C@@H]4O[C@H](CO)[C@@H](O)[C@H](O)[C@H]4O)[C@@H]3CC[C@H]2C1=O | met
CCOC(=O)[C@H](CC(C)C)NC(=O)CCC1CC(OC(=O)NCCc2ccc(F)cc2)CC2(CCCC(COC(=O)NCCCN3CCCC3=O)O2)O1 (stereo not given in full) | met
O=C1C=C[C@@H](O)[C@@H]2[C@@H]3C(=O)N(Cc4ccccc4)C(=O)[C@@H]3CC[C@@H]12 | not met
CCOC(=O)[C@H](CC(C)C)NC(=O)CCC1CC(OC(=O)NCc2ccc3c(c2)OCO3)CC2(CCCC(COC(=O)NCCc3ccc(Cl)cc3)O2)O1 (stereo not given in full) | met
